# Tgt: LINE1 reverse transcriptase (Homo sapiens, UniProt O00370)
# Construct: expressed in transfected cells; host or cells: HeLa Tet-On 3G (Takara, cat no 631183)
# Sequence (O00370 whole entry, looked up): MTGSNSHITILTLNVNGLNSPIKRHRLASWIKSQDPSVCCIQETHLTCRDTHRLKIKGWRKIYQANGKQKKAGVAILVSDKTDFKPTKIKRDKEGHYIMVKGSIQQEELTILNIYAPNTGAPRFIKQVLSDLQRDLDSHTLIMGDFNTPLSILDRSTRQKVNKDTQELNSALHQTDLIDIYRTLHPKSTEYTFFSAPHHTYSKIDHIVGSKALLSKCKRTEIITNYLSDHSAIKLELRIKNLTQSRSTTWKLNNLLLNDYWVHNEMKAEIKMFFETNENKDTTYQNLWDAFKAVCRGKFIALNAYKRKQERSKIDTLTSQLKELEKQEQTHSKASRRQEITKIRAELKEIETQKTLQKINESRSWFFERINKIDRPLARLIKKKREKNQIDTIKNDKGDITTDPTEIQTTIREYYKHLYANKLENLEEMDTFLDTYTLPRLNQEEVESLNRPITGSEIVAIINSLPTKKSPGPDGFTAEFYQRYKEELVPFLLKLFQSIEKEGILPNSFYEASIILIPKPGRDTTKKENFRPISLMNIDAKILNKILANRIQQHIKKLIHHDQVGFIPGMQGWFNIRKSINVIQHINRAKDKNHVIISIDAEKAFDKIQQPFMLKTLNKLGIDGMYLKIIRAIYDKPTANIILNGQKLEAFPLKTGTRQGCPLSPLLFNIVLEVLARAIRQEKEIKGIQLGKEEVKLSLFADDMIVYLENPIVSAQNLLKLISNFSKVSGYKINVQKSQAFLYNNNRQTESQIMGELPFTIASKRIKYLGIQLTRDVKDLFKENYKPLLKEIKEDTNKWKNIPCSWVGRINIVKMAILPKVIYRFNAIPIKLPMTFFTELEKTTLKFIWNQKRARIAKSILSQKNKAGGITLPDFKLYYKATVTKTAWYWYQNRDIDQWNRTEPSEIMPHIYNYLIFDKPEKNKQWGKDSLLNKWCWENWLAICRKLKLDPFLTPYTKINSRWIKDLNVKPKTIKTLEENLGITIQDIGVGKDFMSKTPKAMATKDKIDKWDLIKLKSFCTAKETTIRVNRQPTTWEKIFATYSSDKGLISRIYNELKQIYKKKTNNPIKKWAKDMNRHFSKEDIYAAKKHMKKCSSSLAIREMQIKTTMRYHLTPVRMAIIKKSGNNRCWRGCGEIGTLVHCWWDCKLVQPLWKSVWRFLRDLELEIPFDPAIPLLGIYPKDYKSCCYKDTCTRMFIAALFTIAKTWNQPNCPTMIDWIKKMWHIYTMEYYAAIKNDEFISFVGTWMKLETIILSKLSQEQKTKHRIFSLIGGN
# Test description: Stable artificial-intron Cis LINE1 reporter assay (HeLa Tet-On 3G, Firefly luciferase)
# Format: cell-based
# Condition context: HeLa L1 artificial-intron reporter cells, doxycycline 500 ng/mL, 72 h, class symbols
pIC50: −log10 of the molar value.
Measurement name: pIC50

Would you please look over these solved cases?
[[record]]
compound = "CC[C@]1(CO)O[C@@H](n2cnc3c(=O)[nH]c(N)nc32)[C@@H](F)[C@@H]1O [Compound 68]"
tgt = "LINE1 reverse transcriptase (Homo sapiens, UniProt O00370)"
measurement_name = "pIC50"
result = "6.60 to 7.00"

[[record]]
compound = "C=C[C@]1(CO)O[C@@H](n2cc(F)c(N)nc2=O)C[C@@H]1O [Compound 74]"
tgt = "LINE1 reverse transcriptase (Homo sapiens, UniProt O00370)"
measurement_name = "pIC50"
result = "≥ 7.30"

[[record]]
compound = "Nc1nc(=O)n([C@@H]2O[C@@](CO)(CCl)[C@@H](O)[C@@H]2O)cc1F [Compound 73]"
tgt = "LINE1 reverse transcriptase (Homo sapiens, UniProt O00370)"
measurement_name = "pIC50"
result = "≥ 7.30"


Please turn your attention to the following entry.
Send back LINE1 reverse transcriptase (Homo sapiens, UniProt O00370) pIC50 of C=C[C@]1(CO)O[C@@H](n2cnc3c(N)nc(F)nc32)C[C@@H]1O [Compound 109] only.
≥ 7.30

###

# Tgt: LINE1 reverse transcriptase (Homo sapiens)
# Construct: expressed in transfected cells; host or cells: HeLa Tet-On 3G (Takara, cat no 631183)
# Test description: Stable artificial-intron Cis LINE1 reporter assay (HeLa Tet-On 3G, Firefly luciferase)
# Type: cell-based
# Condition context: HeLa L1 artificial-intron reporter cells, doxycycline 500 ng/mL, 72 h, class symbols
Listed next: entries and their corresponding IC50.

Would you please look over these solved cases?
[[record]]
query_smiles = "C#C[C@]1(CO)O[C@@H](c2ccc3c(N)ncnn23)C[C@@H]1O"
measurement_name = "IC50"
result = "≤ 50 nM"

[[record]]
query_smiles = "Cc1cn([C@H]2C[C@H](O)[C@](CO)(N=[N+]=[N-])O2)c(=O)[nH]c1=O"
measurement_name = "IC50"
result = "> 1000 nM"

[[record]]
query_smiles = "C#C[C@]1(CO)O[C@@H](n2cnc3c(N)nc(F)nc32)[C@@H](F)[C@@H]1O"
measurement_name = "IC50"
result = "≤ 50 nM"

[[record]]
query_smiles = "Nc1nc2c(ncn2[C@H]2C[C@H](O)[C@](CO)(CF)O2)c(=O)[nH]1"
measurement_name = "IC50"
result = "50 to 100 nM"

[[record]]
query_smiles = "C#C[C@]1(CO)O[C@@H](n2cc(F)c(N)nc2=O)[C@@H](F)[C@@H]1O"
measurement_name = "IC50"
result = "≤ 50 nM"


Using the record for C[C@@H]1[C@H](n2ccc(N)nc2=O)O[C@](C)(CO)[C@H]1O , state its measured IC50.
250 to 1000 nM

Using the record for Nc1nc2c(ncn2[C@@H]2O[C@@](CO)(CCl)[C@@H](O)[C@@H]2F)c(=O)[nH]1 , state its measured IC50.
> 1000 nM

Using the record for Nc1nc(=O)n([C@H]2C[C@H](O)[C@](CO)(C(F)(F)F)O2)cc1F , state its measured IC50.
250 to 1000 nM
